target: GPR40 (Homo sapiens, UniProt O14842); construct: expressed in transfected cells; host or cells: HEK293 cells stably expressing GPR40 (Hygromycin selection); test: IP1 accumulation assay in HEK293 cells stably expressing GPR40; type: cell-based; conditions: IP1 accumulation, HEK293 cells stably expressing GPR40, 2 hours at 37° C., % effect relative to AMG-1638; table of Biological Example 1
Sequence (O14842 whole entry): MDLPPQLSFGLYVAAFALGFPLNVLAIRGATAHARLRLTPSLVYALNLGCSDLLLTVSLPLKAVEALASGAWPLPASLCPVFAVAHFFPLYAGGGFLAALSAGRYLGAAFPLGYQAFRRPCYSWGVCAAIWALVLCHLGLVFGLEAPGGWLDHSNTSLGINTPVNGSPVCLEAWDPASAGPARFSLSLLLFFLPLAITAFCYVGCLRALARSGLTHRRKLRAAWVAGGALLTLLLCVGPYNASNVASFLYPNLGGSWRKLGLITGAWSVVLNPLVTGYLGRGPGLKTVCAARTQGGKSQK
pEC50: −log10 of the molar value.
Measured property: pEC50

>  <Compound smiles>
COc1ccc(F)c(-c2ccc(COc3cccc([C@@H](CC(=O)O)C4CC4)c3)cc2OC(C)(C)Cn2cc(CCCCCCCCCCC(=O)NCCN(CCC(=O)NCCN)CCC(=O)NCCN)nn2)c1

>  <Numeric result>
5.59

$$$$

1. COc1ccc(F)c(-c2ccc(COc3cccc([C@@H](CC(=O)O)C4CC4)c3)cc2CC(C)(C)Cn2cc(CCCCCCCCCCCCC(=O)NCCN(CCC(=O)NCCN)CCC(=O)NCCN)nn2)c1
2. COc1ccc(F)c(-c2ccc(COc3cccc([C@@H](CC(=O)O)C4CC4)c3)cc2CC(C)(C)Cc2cn(CCCCCCCCCCCCCCCC(=O)NCC[N+](C)(CCC(=O)NCCN)CCC(=O)NCCN)nn2)c1
Prompt: Choose between 1 and 2 : whose measured pEC50 value is numerically larger? // respond with label for picked entry
Response: 2
(2: 8.59, 1: 6.34)

====

Biological target: GPR40 (Homo sapiens)
Construct: expressed in transfected cells; host or cells: HEK293 cells stably expressing GPR40 (Hygromycin selection)
Test: IP1 accumulation assay in HEK293 cells stably expressing GPR40
Assay type: cell-based
Details: IP1 accumulation, HEK293 cells stably expressing GPR40, 2 hours at 37° C., % effect relative to AMG-1638; table of Biological Example 1
Protocol: IP1 accumulation assay was used to evaluate the potency of compounds. […] Assay plate was incubated at room temperature for 60 min and then read at 665 nm/615 nm on an Envision plate reader (PerkinElmer). […] Dose curve was fitted and EC50 of each compound was calculated by using XLFit.
pEC50: −log10 of the molar value.
Measured property: pEC50

>  <Compound>
COc1ccc(F)c(-c2ccc(COc3cccc([C@@H](CC(=O)O)C4CC4)c3)cc2CC(C)(C)Cc2cn(CCCCCCCCCCCCCCCCCC(=O)NCC[N+](C)(C)CCCS(=O)(=O)O)nn2)c1

>  <pEC50>
8.82

$$$$

a. COc1ccc(C(=O)N(CC(C)(C)CCCCCCn2cc(CCCCCCC(=O)NCCN(CCC(=O)NCCN)CCC(=O)NCCN)nn2)c2cccc(C)n2)c(N2CCC(COc3cc([C@@H](CC(=O)O)C4CC4)ccn3)CC2)c1
b. COc1ccc(C(=O)N(CC(C)(C)CCn2cc(CCCCCCCCCC(=O)NCCC[N+](C)(CC(=O)[O-])CC(=O)O)nn2)c2cccc(C)n2)c(N2CCC(COc3cc([C@@H](CC(=O)O)C4CC4)ccn3)CC2)c1 (stereo partly drawn)
c. COc1ccc(F)c(-c2ccc(COc3cccc([C@@H](CC(=O)O)C4CC4)c3)cc2CC(C)(C)Cn2cc(CCCCCCCCCCCCCCCCCC(=O)NCC[N+](C)(CCC(=O)NCCN)CCC(=O)NCCN)nn2)c1
d. COc1ccc(F)c(-c2ccc(COc3cccc([C@@H](CC(=O)O)C4CC4)c3)cc2OC(C)(C)Cn2cc(CCCCCCCCCCCCC(=O)NCC[N+](C)(CCC(=O)NCCN)CCC(=O)NCCN)nn2)c1
e. C[C@H](C(=O)O)[C@H](c1ccc2c(c1)O[C@@H](C1CCN(Cc3cc(-n4cc(CCCCCCCCCCCCCCCCCC(=O)NCC[N+](C)(C)CCCS(=O)(=O)[O-])nn4)ccc3OC(F)(F)F)CC1)CC2)C1CC1
Prompt: Rank the items in ascending order with respect to pEC50. # list labels per requested ordering
Response: b, d, a, c, e

P. COc1ccc(C(=O)N(CC(C)(C)CCCCCCCCCCCCCCCCCCCC(=O)NCCN(CC(=O)NCCN)CC(=O)NCCN)c2cccc(C)n2)c(N2CCC(COc3cc([C@@H](CC(=O)O)C4CC4)ccn3)CC2)c1
Q. C[C@H](C(=O)O)[C@H](c1ccc2c(c1)O[C@@H](C1CCN(Cc3cc(-n4cc(CCCCCCCCCCC(=O)NCC[N+](C)(CCC(=O)NCCN)CCC(=O)NCCN)nn4)ccc3OC(F)(F)F)CC1)CC2)C1CC1
Prompt: Lower value for measured pEC50? Options: P , Q // respond with label for picked entry
Response: Q
(Q: 6.71, P: 9.17)

====

target: GPR40 (Homo sapiens); construct: expressed in transfected cells; host or cells: HEK293 cells stably expressing GPR40 (Hygromycin selection); test: IP1 accumulation assay in HEK293 cells stably expressing GPR40; assay type: cell-based; conditions: IP1 accumulation, HEK293 cells stably expressing GPR40, 2 hours at 37° C., % effect relative to AMG-1638; table of Biological Example 1
Measured property: EC50 (nM)

Reference set (2 entries):
>  <Compound>
COc1ccc(F)c(-c2ccc(COc3cccc([C@@H](CC(=O)O)C4CC4)c3)cc2CC(C)(C)Cc2cn(CCCCCCCCCC(=O)NCCN(CCC(=O)NCCN)CCC(=O)NCCN)nn2)c1 [Example 135]

>  <Unit symbol>
nM

>  <EC50>
3700

$$$$
>  <Compound>
COc1ccc(C(=O)N(CC(C)(C)CCCCCCn2cc(CCCCCCCCC(=O)NCCN(CCC(=O)NCCN)CCC(=O)NCCN)nn2)c2cccc(C)n2)c(N2CCC(COc3cc([C@@H](CC(=O)O)C4CC4)ccn3)CC2)c1 [Example 75]

>  <Unit symbol>
nM

>  <EC50>
0.75

$$$$

P. COc1ccc(F)c(-c2ccc(COc3cccc([C@@H](CC(=O)O)C4CC4)c3)cc2C(C)(C)c2cn(CCCCCCCCCCCCCCC(=O)NCCN(CCC(=O)NCCN)CCC(=O)NCCN)nn2)c1 [Example 47]
Q. COc1ccc(C(=O)N(CC(C)(C)CCCCCCn2cc(CCCCCCCCCCCCCC(=O)NCCCN(CC(=O)O)CC(=O)O)nn2)c2cccc(C)n2)c(N2CCC(COc3cc([C@@H](CC(=O)O)C4CC4)ccn3)CC2)c1 [Example 206]
R. C[C@H](C(=O)O)[C@H](c1ccc2c(c1)O[C@@H](C1CCN(Cc3cc(-n4cc(COCCOCCOCCOCC(=O)NCCN(CCC(=O)NCCN)CCC(=O)NCCN)nn4)ccc3OC(F)(F)F)CC1)CC2)C1CC1 [Example 172]
Prompt: Order the 3 compounds from highest to lowest EC50. # list labels per requested ordering
Response: R, P, Q

====

target: GPR40 (Homo sapiens, UniProt O14842); construct: expressed in transfected cells; host or cells: HEK293 cells stably expressing GPR40 (Hygromycin selection); assay: IP1 accumulation assay in HEK293 cells stably expressing GPR40; format: cell-based; conditions: IP1 accumulation, HEK293 cells stably expressing GPR40, 2 hours at 37° C., % effect relative to AMG-1638; table of Biological Example 1
pEC50: −log10 of the molar value.
Measured property: pEC50

>  <Compound smiles>
COc1ccc(F)c(-c2ccc(COc3cccc([C@@H](CC(=O)O)C4CC4)c3)cc2CC(C)(C)Cn2cc(CCCCCCCCCCCCCCCCCC(=O)NCCCN(CC(=O)O)CC(=O)O)nn2)c1

>  <pEC50>
8.66

$$$$

A. CCCCCNC(=O)CCCCCCCCCCCCCCCCCc1cn(CC(C)(C)Cc2cc(COc3cccc([C@@H](CC(=O)O)C4CC4)c3)ccc2-c2cc(OC)ccc2F)nn1
B. C[C@H](C(=O)O)[C@H](c1ccc2c(c1)O[C@@H](C1CCN(Cc3cc(-n4cc(CCCCCCCCCCCCCCCCCC(=O)NCC[N+](C)(C)C)nn4)ccc3OC(F)(F)F)CC1)CC2)C1CC1
C. C[C@H](C(=O)O)[C@H](c1ccc2c(c1)O[C@@H](C1CCN(Cc3cc(-n4cc(CCCCCCCCCCCCCCCC(=O)NCCN(CCC(=O)NCCN)CCC(=O)NCCN)nn4)ccc3OC(F)(F)F)CC1)CC2)C1CC1
Prompt: Rank the items in ascending order with respect to pEC50. # list labels per requested ordering
Response: A, B, C

====

target: GPR40 (Homo sapiens); construct: expressed in transfected cells; host or cells: HEK293 cells stably expressing GPR40 (Hygromycin selection); test: IP1 accumulation assay in HEK293 cells stably expressing GPR40; assay type: cell-based; details: IP1 accumulation, HEK293 cells stably expressing GPR40, 2 hours at 37° C., % effect relative to AMG-1638; table of Biological Example 1
Measured property: EC50 (nM)

Reference set (2 entries):
>  <Compound>
COc1ccc(C(=O)N(CC(C)(C)CCCCCCn2cc(CCCCCCCCCCCCCC(=O)NCCC[N+](C)(CC(=O)[O-])CC(=O)O)nn2)c2cccc(C)n2)c(N2CCC(COc3cc([C@@H](CC(=O)O)C4CC4)ccn3)CC2)c1 (some centres unmarked) [Example 210]

>  <EC50 (nM)>
0.54

$$$$
>  <Compound>
COc1ccc(F)c(-c2ccc(COc3cccc([C@@H](CC(=O)O)C4CC4)c3)cc2CC(C)(C)Cn2cc(CCCCCCCCCCCCCC(=O)NCCC[N+](C)(CC(=O)O)CC(=O)O)nn2)c1 [Example 107]

>  <EC50 (nM)>
1310

$$$$

A. COc1ccc(C(=O)N(CC(C)(C)CCn2cc(CCCCCCCCCC(=O)NCCCN(CC(=O)O)CC(=O)O)nn2)c2cccc(C)n2)c(N2CCC(COc3cc([C@@H](CC(=O)O)C4CC4)ccn3)CC2)c1 [Example 124]
B. COc1ccc(F)c(-c2ccc(COc3cccc([C@@H](CC(=O)O)C4CC4)c3)cc2OC(C)(C)COCc2cn(CCCCCCCCCCCCCCCCCC(=O)NCCN(CCC(=O)NCCN)CCC(=O)NCCN)nn2)c1 [Example 27]
Prompt: Choose between A and B : whose measured EC50 value is numerically larger? // respond with label for picked entry
Response: A
(A: 226 nM, B: 5.32 nM)
